Target: human GPBAR1 receptor (Homo sapiens, UniProt Q8TDU6)
Sequence (Q8TDU6 1-330): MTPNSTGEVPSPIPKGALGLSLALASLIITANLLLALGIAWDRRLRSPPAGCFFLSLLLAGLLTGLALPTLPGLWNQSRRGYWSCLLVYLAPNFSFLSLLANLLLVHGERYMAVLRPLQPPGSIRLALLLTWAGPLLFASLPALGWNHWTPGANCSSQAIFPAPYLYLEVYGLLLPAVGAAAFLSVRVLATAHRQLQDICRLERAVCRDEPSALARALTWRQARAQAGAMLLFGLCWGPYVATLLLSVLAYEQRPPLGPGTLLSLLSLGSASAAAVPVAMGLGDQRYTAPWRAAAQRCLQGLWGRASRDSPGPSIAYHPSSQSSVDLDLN
Assay: functional cAMP assay in CHO-dhfr(minus) cells expressing human GPBAR1 receptors
Details: cAMP increase (TR-FRET) in CHO-dhfr(minus) cells expressing human GPBAR1; compounds incubated 30 min at 30° C.
Here, each record is paired with measured EC50 data.
METRIC NAME: EC50 (nM)

[[record]]
compound = "Cc1cccc2c1N(C(=O)c1cc(F)ccc1Oc1cc(Cl)ccc1Cl)CCC2"
result_unit = "nM"
measurement = 920

[[record]]
compound = "O=C(c1cccnc1Oc1ccc(Cl)c(Cl)c1)N1CCCc2ccccc21"
result_unit = "nM"
measurement = 996

[[record]]
compound = "O=C(O)CCCCCN1CCN(C(=O)c2cc(F)cnc2Oc2cc(Cl)ccc2Cl)c2ccccc21"
result_unit = "nM"
measurement = 104

[[record]]
compound = "O=C(c1cccnc1Oc1cccc(I)c1)N1CCCc2ccccc21"
result_unit = "nM"
measurement = 345

[[record]]
compound = "O=C(c1cccnc1Oc1cccc(Cl)c1Cl)N1CCCc2ccccc21"
result_unit = "nM"
measurement = 1150

[[record]]
compound = "O=C(c1cc(F)cnc1Oc1cc(Cl)ccc1Cl)N1CCN(C2CCC2)c2ccccc21"
result_unit = "nM"
measurement = 58

[[record]]
compound = "CC1Cc2ccccc2N1C(=O)c1ccccc1Oc1cc(Cl)ccc1Cl (centres unmarked)"
result_unit = "nM"
measurement = 1710

[[record]]
compound = "O=C(c1cccnc1Oc1ccc(Cl)cc1Cl)N1CCCc2ccccc21"
result_unit = "nM"
measurement = 1960

[[record]]
compound = "CN(C(=O)c1cc(F)ccc1Oc1cc(Cl)ccc1Cl)c1ccccc1"
result_unit = "nM"
measurement = 771

[[record]]
compound = "O=C(O)CCc1ccc(S(=O)(=O)N2CCN(C(=O)c3cccnc3Oc3cc(Cl)ccc3Cl)c3ccccc32)cc1"
result_unit = "nM"
measurement = 745

[[record]]
compound = "CCOC(=O)CCN1CCN(C(=O)c2cc(F)cnc2Oc2cc(Cl)ccc2Cl)c2ccccc21"
result_unit = "nM"
measurement = 841

[[record]]
compound = "COc1ccccc1N(C)C(=O)c1ccncc1Oc1ccc(Cl)cc1Cl"
result_unit = "nM"
measurement = 150

[[record]]
compound = "CN(CC(=O)O)C(=O)CCc1cc(Cl)c(Oc2ncccc2C(=O)N2CCN(C3CC3)c3ccccc32)cc1Cl"
result_unit = "nM"
measurement = 96

[[record]]
compound = "O=C(c1cc(F)cnc1Oc1cc(Cl)ccc1Cl)N1CCNc2ccccc21"
result_unit = "nM"
measurement = 15

[[record]]
compound = "O=C(O)/C=C/c1cc(Cl)c(Oc2ncccc2C(=O)N2CCN(C3CC3)c3ccccc32)cc1Cl"
result_unit = "nM"
measurement = 132

[[record]]
compound = "N#Cc1cccc(Oc2ncccc2C(=O)N2CCCc3ccccc32)c1"
result_unit = "nM"
measurement = 575

[[record]]
compound = "O=C(c1ccccc1Oc1cc(Cl)ccc1Cl)N1CCCc2cc(F)c(F)cc21"
result_unit = "nM"
measurement = 102


====

biological target: human GPBAR1 receptor (Homo sapiens, UniProt Q8TDU6); construct: expressed in transfected cells; assay: functional cAMP assay in CHO-dhfr(minus) cells expressing human GPBAR1 receptors; format: cell-based; settings: cAMP increase (TR-FRET) in CHO-dhfr(minus) cells expressing human GPBAR1; compounds incubated 30 min at 30° C.
pEC50: −log10 of the molar value.
Readings of pEC50 for the listed compounds
METRIC NAME: pEC50

[[record]]
compound = "CN(C(=O)c1cccnc1Oc1cc(Cl)ccc1Cl)c1ccccc1-c1ccccc1 [Example 43]"
system_under_test = "human GPBAR1 receptor (Homo sapiens, UniProt Q8TDU6)"
metric_name = "pEC50"
measurement = 6.30

[[record]]
compound = "COc1cccc(C)c1N(C)C(=O)c1cccnc1Oc1cc(Cl)ccc1Cl [Example 53]"
system_under_test = "human GPBAR1 receptor (Homo sapiens, UniProt Q8TDU6)"
metric_name = "pEC50"
measurement = 6.49

[[record]]
compound = "COc1ccc(Cl)cc1N(C)C(=O)c1cccnc1Oc1cc(Cl)ccc1Cl [Example 55]"
system_under_test = "human GPBAR1 receptor (Homo sapiens, UniProt Q8TDU6)"
metric_name = "pEC50"
measurement = 6.19

[[record]]
compound = "O=C(c1cccnc1Oc1cc(Cl)ccc1Cl)N1CCCc2cc(F)c(F)cc21 [Example 38]"
system_under_test = "human GPBAR1 receptor (Homo sapiens, UniProt Q8TDU6)"
metric_name = "pEC50"
measurement = 7.24

[[record]]
compound = "O=C(c1cccnc1Oc1cccc(OC(F)(F)F)c1)N1CCCc2ccccc21 [Example 16]"
system_under_test = "human GPBAR1 receptor (Homo sapiens, UniProt Q8TDU6)"
metric_name = "pEC50"
measurement = 5.72

[[record]]
compound = "O=C(c1cccnc1Oc1cc(Cl)ccc1Cl)N1CCCc2cc(F)ccc21 [Example 37]"
system_under_test = "human GPBAR1 receptor (Homo sapiens, UniProt Q8TDU6)"
metric_name = "pEC50"
measurement = 7.55

[[record]]
compound = "CCOC(=O)CCCCN1CCN(C(=O)c2cc(F)cnc2Oc2cc(Cl)ccc2Cl)c2ccccc21 [Example 159]"
system_under_test = "human GPBAR1 receptor (Homo sapiens, UniProt Q8TDU6)"
metric_name = "pEC50"
measurement = 6.40

[[record]]
compound = "COc1ncccc1N(C)C(=O)c1cccnc1Oc1cc(Cl)ccc1Cl [Example 48]"
system_under_test = "human GPBAR1 receptor (Homo sapiens, UniProt Q8TDU6)"
metric_name = "pEC50"
measurement = 7.18

[[record]]
compound = "O=C(c1ccc(C(F)(F)F)nc1Oc1cc(Cl)ccc1Cl)N1CCCc2ccccc21 [Example 29]"
system_under_test = "human GPBAR1 receptor (Homo sapiens, UniProt Q8TDU6)"
metric_name = "pEC50"
measurement = 6.84


====

biological target: human GPBAR1 receptor (Homo sapiens, UniProt Q8TDU6); assay: functional cAMP assay in CHO-dhfr(minus) cells expressing human GPBAR1 receptors; conditions: cAMP increase (TR-FRET) in CHO-dhfr(minus) cells expressing human GPBAR1; compounds incubated 30 min at 30° C.
pEC50: −log10 of the molar value.
METRIC NAME: pEC50

[[record]]
cpd_smiles = "Cc1ccc2c(c1)CCCN2C(=O)c1cccnc1Oc1cc(Cl)ccc1Cl"
system_under_test = "human GPBAR1 receptor (Homo sapiens, UniProt Q8TDU6)"
metric_name = "pEC50"
measurement = 6.86

[[record]]
cpd_smiles = "O=C(c1cccnc1Oc1cc(F)cc(Cl)c1)N1CCCc2ccccc21"
system_under_test = "human GPBAR1 receptor (Homo sapiens, UniProt Q8TDU6)"
metric_name = "pEC50"
measurement = 6.83

[[record]]
cpd_smiles = "O=C(c1cc(F)cnc1Oc1cc(F)ccc1F)N1CCCc2ccccc21"
system_under_test = "human GPBAR1 receptor (Homo sapiens, UniProt Q8TDU6)"
metric_name = "pEC50"
measurement = 6.97

